System Tested: 3-hydroxyacyl-CoA dehydrogenase activity of multi-active enzyme (Pseudomonas fragi, UniProt P28793)
Construct: Crude enzyme was prepared from microbial cells of Pseudomonas fragi B-0771; endogenous in cells; host or cells: Pseudomonas fragi B-0771 FERM-P No. 5701 (enzyme extracted with lysozyme and purified from its own cells, not recombinant)
Sequence (P28793 whole entry): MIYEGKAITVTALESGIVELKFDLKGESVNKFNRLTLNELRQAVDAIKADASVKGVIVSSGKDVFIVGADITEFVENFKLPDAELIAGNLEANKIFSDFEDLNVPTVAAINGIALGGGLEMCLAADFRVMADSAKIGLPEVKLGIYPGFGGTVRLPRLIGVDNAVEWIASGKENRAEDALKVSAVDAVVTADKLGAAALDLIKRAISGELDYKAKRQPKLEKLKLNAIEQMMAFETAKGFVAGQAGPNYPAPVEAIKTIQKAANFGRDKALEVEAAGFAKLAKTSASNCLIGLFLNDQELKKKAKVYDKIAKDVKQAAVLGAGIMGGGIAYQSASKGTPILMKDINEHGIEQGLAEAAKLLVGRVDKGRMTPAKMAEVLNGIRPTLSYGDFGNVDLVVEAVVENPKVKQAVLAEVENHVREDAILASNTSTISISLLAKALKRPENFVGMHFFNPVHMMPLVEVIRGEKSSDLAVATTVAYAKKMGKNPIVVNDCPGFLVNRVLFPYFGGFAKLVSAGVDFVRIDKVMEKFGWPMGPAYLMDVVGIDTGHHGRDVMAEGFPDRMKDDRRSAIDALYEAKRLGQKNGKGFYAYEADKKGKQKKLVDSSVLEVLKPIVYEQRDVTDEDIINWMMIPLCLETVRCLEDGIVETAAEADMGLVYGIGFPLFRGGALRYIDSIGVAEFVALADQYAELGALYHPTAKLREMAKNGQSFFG
Sequence (P28790 whole entry partner): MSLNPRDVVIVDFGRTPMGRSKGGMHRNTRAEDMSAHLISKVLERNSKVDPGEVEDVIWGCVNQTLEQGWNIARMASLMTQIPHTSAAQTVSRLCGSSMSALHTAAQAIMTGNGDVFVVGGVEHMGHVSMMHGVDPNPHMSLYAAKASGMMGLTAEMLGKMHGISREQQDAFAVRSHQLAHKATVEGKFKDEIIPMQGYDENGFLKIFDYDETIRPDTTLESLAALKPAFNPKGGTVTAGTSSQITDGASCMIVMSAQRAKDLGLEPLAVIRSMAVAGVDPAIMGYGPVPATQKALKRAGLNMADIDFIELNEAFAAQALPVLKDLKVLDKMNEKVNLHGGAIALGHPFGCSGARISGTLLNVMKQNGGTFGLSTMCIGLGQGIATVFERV
Experiment Summary: Substrate specificity of 3-hydroxyacyl-CoA dehydrogenase activity
Assay type: biochemical, Pseudomonas fragi B-0771
Experimental Parameters: 3-hydroxyacyl-CoA used as substrate of 3-hydroxyacyl-CoA dehydrogenase activity
Property: Relative activity (%)
Provide only the numeric value, understood in %.

The measured Relative activity associated with CCCCCCCC/C=C\CCCCCC(O)CC(=O)SCCNC(=O)CCNC(=O)[C@H](O)C(C)(C)COP(=O)(O)OP(=O)(O)OC[C@H]1O[C@@H](n2cnc3c(N)ncnc32)[C@H](O)[C@@H]1OP(=O)(O)O (stereo partly drawn) [3-hydroxyoleyl-CoA] reads 57.5

The measured Relative activity associated with CCCCCCCCCCCC(O)CC(=O)SCCNC(=O)CCNC(=O)[C@H](O)C(C)(C)COP(=O)(O)OP(=O)(O)OC[C@H]1O[C@@H](n2cnc3c(N)ncnc32)[C@H](O)[C@@H]1OP(=O)(O)O (stereo partly drawn) [3-hydroxymyristoyl-CoA] reads 98.0

The measured Relative activity associated with CCCCCCCCCCCCCCCCCC(O)CC(=O)SCCNC(=O)CCNC(=O)[C@H](O)C(C)(C)COP(=O)(O)OP(=O)(O)OC[C@H]1O[C@@H](n2cnc3c(N)ncnc32)[C@H](O)[C@@H]1OP(=O)(O)O (stereo partly drawn) [3-hydroxyarachidoyl-CoA] reads 9.5

The measured Relative activity associated with CCCCCCCCCCCCCC(O)CC(=O)SCCNC(=O)CCNC(=O)[C@H](O)C(C)(C)COP(=O)(O)OP(=O)(O)OC[C@H]1O[C@@H](n2cnc3c(N)ncnc32)[C@H](O)[C@@H]1OP(=O)(O)O (stereo partly drawn) [3-hydroxypalmitoyl-CoA] reads 75.5

The measured Relative activity associated with CCCCCC(O)CC(=O)SCCNC(=O)CCNC(=O)[C@H](O)C(C)(C)COP(=O)(O)OP(=O)(O)OC[C@H]1O[C@@H](n2cnc3c(N)ncnc32)[C@H](O)[C@@H]1OP(=O)(O)O (stereo partly drawn) [3-hydroxycaprylyl-CoA] reads 88.1

The measured Relative activity associated with CCCCCCCC(O)CC(=O)SCCNC(=O)CCNC(=O)[C@H](O)C(C)(C)COP(=O)(O)OP(=O)(O)OC[C@H]1O[C@@H](n2cnc3c(N)ncnc32)[C@H](O)[C@@H]1OP(=O)(O)O (stereo partly drawn) [3-hydroxycapryl-CoA] reads 99.0

From: patent US4491631A
